- EXPERIMENTAL TARGET: human NPY Y5 receptor (Homo sapiens, UniProt Q15761)
- Construct: expressed in transfected cells
- PROCEDURE SUMMARY: Affinity for NPY Y5 receptor ([125I] peptide YY binding, CHO cell membranes)
- CONDITIONS USED: inhibition of specific [125I] peptide YY binding, membranes of CHO cells expressing NPY Y5 receptor
pIC50: −log10 of the molar value.
ENDPOINT NAME: pIC50

Recorded pIC50, per entry:
MOLECULE	pIC50
CC(C)(C)S(=O)(=O)NC1CCC(C(=O)Nc2ccc(N3CCN(c4ccccc4)CC3)cc2)CC1 (centres unmarked) [Compound I-53]	8.39
CCOCCN(CCOCC)c1ccc(NC(=O)C2CCC(NS(=O)(=O)C(C)(C)C)CC2)cc1 (centres unmarked) [Ia-45]	8.32
CC(C)(C)S(=O)(=O)NC1CCC(C(=O)NCCSc2cc(C(F)(F)F)nc3ccccc23)CC1 (centres unmarked) [Compound I-152]	9.06

[a] CC(C)(C)S(=O)(=O)NC1CCC(C(=O)Nc2ccc(Cl)cc2Cl)CC1 (centres unmarked) [Ia-31]
[b] COc1cc2c(cc1NC(=O)C1CCC(NS(=O)(=O)C(C)(C)C)CC1)oc1ccccc12 (centres unmarked) [Compound I-132]
Qu. Which item exceeds the other in pIC50, a or b ? Lab note: record the label of whichever item you select.
Ans. b

[P] CC(C)(C)S(=O)(=O)Nc1ccc(C(=O)Nc2ccc3c(c2)CCC3)cc1 [Ia-125]
[Q] CC(C)(C)S(=O)(=O)NC1CCC(C(=O)Nc2ccc3sccc3c2)CC1 (centres unmarked) [Compound I-210]
Qu. Which gives the smaller pIC50 number: P or Q ? Reply with the label of the item you choose.
Ans. P
(P: 8.39, Q: 8.96)

----------
- EXPERIMENTAL TARGET: human NPY Y5 receptor (Homo sapiens)
- Construct: expressed in transfected cells
- Sequence (Q15761 1-445): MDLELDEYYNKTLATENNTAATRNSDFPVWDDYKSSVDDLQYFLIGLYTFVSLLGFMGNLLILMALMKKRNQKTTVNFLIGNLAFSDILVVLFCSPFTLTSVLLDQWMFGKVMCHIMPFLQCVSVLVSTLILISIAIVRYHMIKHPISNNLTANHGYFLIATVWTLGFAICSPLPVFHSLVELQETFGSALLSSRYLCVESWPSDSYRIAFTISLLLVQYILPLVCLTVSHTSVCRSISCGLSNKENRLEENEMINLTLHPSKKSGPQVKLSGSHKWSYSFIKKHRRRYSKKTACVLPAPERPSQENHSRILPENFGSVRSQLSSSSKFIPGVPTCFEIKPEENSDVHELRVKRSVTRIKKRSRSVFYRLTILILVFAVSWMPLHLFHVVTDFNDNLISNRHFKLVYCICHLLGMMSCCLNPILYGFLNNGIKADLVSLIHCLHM
- PROCEDURE SUMMARY: Affinity for NPY Y5 receptor ([125I] peptide YY binding, CHO cell membranes)
- CONDITIONS USED: inhibition of specific [125I] peptide YY binding, membranes of CHO cells expressing NPY Y5 receptor
pIC50: −log10 of the molar value.
ENDPOINT NAME: pIC50

Use these answered entries as a reference point.
COMPOUND	pIC50
CC(C)S(=O)(=O)NC1CCN(C(=O)Nc2ccc(OC3CCOCC3)cc2)CC1	8.96
CC(C)(C)S(=O)(=O)NC1CCC(C(=O)Nc2ccc(N3CCN(c4ncccn4)CC3)cc2)CC1 (centres unmarked)	8.05
CC(C)(C)Oc1ccc(NC(=O)N2CCC(NS(=O)(=O)C(C)(C)C)CC2)cc1	8.70
CC(C)(O)c1ccc(NC(=O)C2CCC(NS(=O)(=O)C(C)(C)C)CC2)cc1 (centres unmarked)	8.64

[A] CC(C)(C)S(=O)(=O)NC1CCC(C(=O)Nc2nc(-c3cccc4ccccc34)cs2)CC1 (centres unmarked)
[B] Cn1nnnc1-c1ccc(NC(=O)[C@H]2CC[C@H](NS(=O)(=O)C(C)(C)C)CC2)cc1
Qu. Which shows the larger pIC50 value: A or B ? Pick one and reply with its label.
Ans. A
(A: 9.31, B: 8.57)

[P] CC(C)(C)S(=O)(=O)NC1CCC(C(=O)Nc2ccc(N3CCCS3(=O)=O)cc2)CC1 (centres unmarked)
[Q] CC(C)S(=O)(=O)N[C@H]1CC[C@H](C(=O)Nc2ccc3oc(=O)ccc3c2)CC1
Qu. Sort P and Q by pIC50 descending and give the first. Your answer should be the label of the entry you select.
Ans. P

[A] CC(C)S(=O)(=O)NC1CCC(C(=O)Nc2ccc(OCC3CC3)cc2)CC1 (centres unmarked)
[B] CC(C)(C)S(=O)(=O)NCCCCC(=O)Nc1ccc2oc(=O)ccc2c1
[C] CC(C)(C)S(=O)(=O)NC1CCC(C(=O)Nc2cccc(S(=O)(=O)NC3CCCCC3)c2)CC1 (centres unmarked)
[D] CC(C)NC(=O)c1cccc(NC(=O)C2CCC(NS(=O)(=O)C(C)C)CC2)c1 (centres unmarked)
Qu. List these items ordered by pIC50, big to small. The reply should contain the labels ordered as requested.
Ans. A, C, B, D
(A: 9.41, C: 9.02, B: 8.70, D: 8.23)

[a] Cc1cc(=O)oc2cc(NC(=O)CCCCNS(=O)(=O)C(C)C)ccc12
[b] Cc1cc(N2C[C@@H](C)O[C@@H](C)C2)ccc1NC(=O)C1CCC(NS(=O)(=O)C(C)C)CC1 (some centres unmarked)
Qu. // select label with min value of measured pIC50 from [ a , b ] Use the label to indicate which entry you chose.
Ans. a

[a] C[C@@H]1CN(c2cccc(NC(=O)C3CCC(NS(=O)(=O)C(C)(C)C)CC3)c2)C[C@H](C)O1 (some centres unmarked)
[b] CC(C)c1ccc(NC(=O)C2CCC(NS(=O)(=O)C(C)(C)C)CC2)cc1 (centres unmarked)
Qu. Pick one, a or b : lowest reported pIC50. Please reply using the label of the selected record.
Ans. a
(a: 8.85, b: 9.19)

----------
- EXPERIMENTAL TARGET: human NPY Y5 receptor (Homo sapiens, UniProt Q15761)
- Construct: expressed in transfected cells
- PROCEDURE SUMMARY: cAMP production inhibitory activity in CHO cells
- Format: cell-based
- CONDITIONS USED: against 50 nM NPY inhibition of forskolin stimulated cAMP, CHO cells expressing human NPY Y5 receptor
- Protocol: Experiment 2 cAMP production inhibitory activity in CHO cells After CHO cells expressing human NPY Y5 receptor were incubated in the presence of 2.5 mM isobutylmethylxanthine (SIGMA) at 37° C. for 20 min., the compound of the present invention was added and incubated for 5 min. […] After the reaction was terminated by adding 1N HCl, the amount of cAMP in the supernatant was measured with EIA kit (Amersham LIFE SCIENCE).
ENDPOINT NAME: IC50 (µM)

COMPOUND	EXPERIMENTAL TARGET	VAL
Cc1cc(=O)oc2cc(NC(=O)C3CCC(NS(=O)(=O)C(C)(C)C)CC3)ccc12 (centres unmarked)	human NPY Y5 receptor (Homo sapiens, UniProt Q15761)	0.03
CC(C)(C)S(=O)(=O)NC1CCC(C(=O)Nc2ccc(OC3CCCCC3)cc2)CC1 (centres unmarked)	human NPY Y5 receptor (Homo sapiens, UniProt Q15761)	0.0092
CC(C)(C)S(=O)(=O)NC1CCC(C(=O)Nc2ccc(S(=O)(=O)N3CCCCC3)cc2)CC1 (centres unmarked)	human NPY Y5 receptor (Homo sapiens, UniProt Q15761)	0.0044

[a] C[C@@H]1CN(c2ccc(NC(=O)C3CCC(NS(=O)(=O)C(C)(C)C)CC3)c(F)c2)C[C@H](C)O1 (some centres unmarked)
[b] Cc1ccc2cc(NC(=O)C3CCC(NS(=O)(=O)C(C)(C)C)CC3)ccc2n1 (centres unmarked)
Qu. Record comparison, field IC50: mark the lower of a and b . Choose, then provide that item's label.
Ans. b

[a] CSc1sc(C(=O)NNC(=O)C2CCC(NS(=O)(=O)C(C)(C)C)CC2)c2c1C(O)CCC2 (centres unmarked)
[b] CC(C)(C)S(=O)(=O)NC1CCC(C(=O)Nc2ccc(-c3ccc(N4CCCCC4)cc3)cc2)CC1 (centres unmarked)
Qu. I would appreciate it if you could say which entry, a or b , has the lower IC50 value. Your answer should be the label of the entry you select.
Ans. a
(a: 0.029 µM, b: 0.072 µM)

----------
- EXPERIMENTAL TARGET: human NPY Y5 receptor (Homo sapiens, UniProt Q15761)
- Construct: expressed in transfected cells
- PROCEDURE SUMMARY: Affinity for NPY Y5 receptor ([125I] peptide YY binding, CHO cell membranes)
- CONDITIONS USED: inhibition of specific [125I] peptide YY binding, membranes of CHO cells expressing NPY Y5 receptor
ENDPOINT NAME: IC50 (nM)

Example compounds with recorded IC50:
COMPOUND	UNIT ABBREV	VAL
CC(C)(C)S(=O)(=O)NC1CCC(C(=O)Nc2cccc(N3CCCS3(=O)=O)c2)CC1 (centres unmarked) [Ia-207]	nM	0.55
CC(C)(C)S(=O)(=O)NC1CCC(C(=O)Nc2cccc(F)c2)CC1 (centres unmarked) [Ia-20]	nM	4.9
CC(C)CN1C(=O)c2ccc(NC(=O)[C@H]3CC[C@H](NS(=O)(=O)C(C)C)CC3)cc2C1=O [Ia-231]	nM	0.29
CCOc1cccc(NC(=O)C2CCC(NS(=O)(=O)C(C)(C)C)CC2)c1 (centres unmarked) [Compound I-160]	nM	0.61
CC(C)S(=O)(=O)NC1CCC(C(=O)Nc2ccc3c(c2)CCC3)CC1 (centres unmarked) [Ia-141]	nM	1
CC(C)NS(=O)(=O)c1ccc(NC(=O)C2CCC(NS(=O)(=O)C(C)(C)C)CC2)cc1 (centres unmarked) [Ia-180]	nM	1.9

[I] Cc1cc(NC(=O)C2CCC(NS(=O)(=O)C(C)C)CC2)ccc1N1C[C@@H](C)O[C@@H](C)C1 (some centres unmarked) [Ia-50]
[II] CC(C)(C)S(=O)(=O)NC1CCC(C(=O)Nc2ccc(C(C#N)c3ccccc3)c(Cl)c2)CC1 (centres unmarked) [Compound I-130]
Qu. Parameter metric = IC50. Return the lower-valued option from I and II . Identify your pick by its label.
Ans. II

[P] CC(C)S(=O)(=O)NCCCCC(=O)Nc1ccc(N2CCC(O)(c3ccc(Cl)cc3)CC2)cc1 [Ia-86]
[Q] CC(C)(C)S(=O)(=O)NC1CCC(C(=O)Nc2cc(F)cc(F)c2)CC1 (centres unmarked) [Ia-136]
Qu. Please let me know which one, P or Q , has a lower measured IC50 value. Kindly state the label of the option you pick.
Ans. P
(P: 0.73 nM, Q: 1.6 nM)

The values you see were collected from patent US7265130B2.
